Values were extracted from patent US20040127492A1.

molecular target: MK-3 (Homo sapiens, UniProt Q16644); assay: MK-3 inhibition IC50 (similar method to MK-2, with appropriate modifications); assay type: biochemical; conditions: read-out: MK-3 Avg. IC50
Sequence (Q16644 whole entry, species assumed): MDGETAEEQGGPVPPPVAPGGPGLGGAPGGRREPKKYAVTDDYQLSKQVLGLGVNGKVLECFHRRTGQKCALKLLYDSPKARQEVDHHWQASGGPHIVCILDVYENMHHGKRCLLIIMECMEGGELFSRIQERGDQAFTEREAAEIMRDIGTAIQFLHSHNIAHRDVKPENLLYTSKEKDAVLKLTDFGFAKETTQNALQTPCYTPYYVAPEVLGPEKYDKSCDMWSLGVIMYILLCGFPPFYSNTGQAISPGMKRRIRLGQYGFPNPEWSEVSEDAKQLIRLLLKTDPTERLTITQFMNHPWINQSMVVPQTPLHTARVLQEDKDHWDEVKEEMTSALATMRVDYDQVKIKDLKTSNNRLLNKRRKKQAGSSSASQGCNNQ
The recorded IC50 of each item maps onto one of these classes: class 0 (below 3 µM), class 1 (3 µM to below 10 µM), class 2 (10 µM or more)

Examples from the recorded data:
Q: Dear colleague, I would appreciate it if you could identify the bin for O=C(O)c1c2c(nn1CCCNS(=O)(=O)Cc1ccccc1)-c1cc(-c3cnc4ccccc4c3)ncc1CC2 and reply at your convenience.
Result: class 1

Q: Place this compound in its band: Cc1ccc(CCNCCCn2nc3c(c2C(=O)O)CCc2cnccc2-3)cc1
Result: class 2

Q: Note: place this compound into its band. Item: NCCCn1nc2c(c1C(=O)O)CCc1cnc(-c3cccc([N+](=O)[O-])c3)cc1-2
Result: class 0

Q: Place this compound in its band: NCCCn1nc2c(c1C(=O)O)CCc1cnc(-c3cc(F)cc(F)c3)cc1-2
Result: class 0

Q: Could you place O=C(O)c1c2c(nn1CCCNCCc1ccc([N+](=O)[O-])cc1)-c1ccncc1CC2 in its proper category? Many thanks.
Result: class 2

Continuing:
Q: Categorize the following entry: O=C1NCCn2nc3c(c21)CCc1cnc(N2Cc4ccccc4C2)cc1-3
Result: class 2

Q: Which of the defined bands does the recorded IC50 of O=C(O)c1c2c(nn1CCCNCCc1ccc(Cl)cc1)-c1ccncc1CC2 sit within?
Result: class 1

Q: Would you mind sorting O=C(O)c1c2c(nn1CCCNCCCc1cccc(Cl)c1)-c1ccncc1CC2 into the appropriate category?
Result: class 1

* * *

target: MAPKAPK2 (MK-2) (Homo sapiens); assay: Determination of MK-2 IC50 (HSP-peptide phosphorylation, anion exchange resin capture assay); format: biochemical; details: Table 1, phenoxypyrazole MK-2 inhibitors; read-out: MK-2 Avg, IC50
Sequence (P49137 whole entry, species assumed): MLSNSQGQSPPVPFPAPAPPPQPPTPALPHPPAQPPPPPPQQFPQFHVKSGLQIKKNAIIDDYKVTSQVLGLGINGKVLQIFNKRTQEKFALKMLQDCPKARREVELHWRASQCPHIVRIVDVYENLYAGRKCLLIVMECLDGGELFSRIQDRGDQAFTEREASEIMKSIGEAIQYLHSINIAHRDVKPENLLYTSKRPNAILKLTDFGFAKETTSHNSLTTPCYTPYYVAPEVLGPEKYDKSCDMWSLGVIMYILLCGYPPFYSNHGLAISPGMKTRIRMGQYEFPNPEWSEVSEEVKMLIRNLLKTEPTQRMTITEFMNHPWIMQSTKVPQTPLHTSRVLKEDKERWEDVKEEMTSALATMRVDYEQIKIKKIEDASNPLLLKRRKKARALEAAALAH
Measurement type: pIC50
Conceptually, pIC50 converts a concentration in mol/L into minus its log10.

Below, 5 compounds whose answers are already recorded.
Q: # query: pIC50 | item COc1cc2c(cc1-c1cccc([N+](=O)[O-])c1)-c1nn(CCNC(=O)OC(C)(C)C)c(C(=O)O)c1CC2 | system: MAPKAPK2 (MK-2) (Homo sapiens)
Result: 4.09

Q: Please state recorded pIC50 (tested on MAPKAPK2 (MK-2) (Homo sapiens)) of Cn1nc(C(N)=O)c2c1-c1ccc(O)cc1CC2
Result: 3.80

Q: Give pIC50 (MAPKAPK2 (MK-2) (Homo sapiens)) of the following compound: O=C1NCCn2nc3c(c21)CCc1cc(O)c(-c2cccc([N+](=O)[O-])c2)cc1-3
Result: 5.52

Q: Find pIC50 (MAPKAPK2 (MK-2) (Homo sapiens)) for the entry NCCCn1nc2c(c1C(=O)O)CCc1cc(O)c(CCc3ccc(Cl)cc3)cc1-2
Result: 5.64

Q: Test system MAPKAPK2 (MK-2) (Homo sapiens); read-out pIC50; what value for COc1cc2c(cc1-c1cccc([N+](=O)[O-])c1)-c1nn(CCCNC(=O)OC(C)(C)C)c(C(=O)O)c1CC2 ?
Result: 4.27

New cases:
Q: Which measured pIC50 belongs to Cn1nc2c(c1C(=O)O)CCc1cc(O)ccc1-2 , tested on MAPKAPK2 (MK-2) (Homo sapiens)?
Result: 4.35

Q: Checklist item: pIC50 tested on MAPKAPK2 (MK-2) (Homo sapiens), entry COc1cc2c(cc1-c1ccc(F)c(F)c1)-c1nn(CCCNC(=O)OC(C)(C)C)c(C(=O)O)c1CC2 , value?
Result: 4.03
